# protocolNotes: self-splicing fitness, log relative to wild type (ln ratio); higher = more splicing; Tetrahymena group I intron in knt gene, E. coli kanamycin selection, DiMSum; sequences stand for … in CUCUCU…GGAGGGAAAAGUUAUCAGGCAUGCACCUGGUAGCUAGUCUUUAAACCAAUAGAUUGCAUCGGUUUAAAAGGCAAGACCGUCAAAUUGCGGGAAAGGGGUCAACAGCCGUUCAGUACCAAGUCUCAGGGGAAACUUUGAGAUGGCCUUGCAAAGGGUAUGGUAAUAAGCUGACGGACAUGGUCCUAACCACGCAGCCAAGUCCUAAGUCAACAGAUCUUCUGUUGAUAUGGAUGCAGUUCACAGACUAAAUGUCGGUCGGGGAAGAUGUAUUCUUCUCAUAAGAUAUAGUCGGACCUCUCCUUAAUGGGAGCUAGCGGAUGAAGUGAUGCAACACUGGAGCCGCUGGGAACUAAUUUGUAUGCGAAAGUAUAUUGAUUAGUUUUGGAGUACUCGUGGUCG;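 also: selection with 25 µg/mL kanamycin versus none on LB agar overnight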
# reportedConditions: 37 °C
Please provide measured self-splicing fitness (ln) for the entries that follow.
Answers are plain numbers.

// known answers, use as guide
| macromoleculeSequence | self-splicing fitness (ln) |
| --- | --- |
| GCAAAGCAAUAUUACGCUAA | -1.29 |
| AUGGAGCAAUAUUACGCCUA | -0.981 |
| AAGUAGCAAUAUUACGUUAC | -2.71 |
| AAUCAGCAAUAUUACGCCAA | -0.855 |
| GACUAGCAAUAUUACGGCAA | -0.302 |

Give self-splicing fitness (ln) for each of the items listed below.
1. GCAAAGCAAUAUUACGCGGU
2. AGGAAGCAAUAUUACGGUAC

Found:
[-2.67, -3.03]

Lookup: Query: self-splicing fitness (ln); subject: CGUAAGCAAUAUUACGAGGU
Found: -1.71

---

# protocolNotes: self-splicing fitness, log relative to wild type (ln ratio); higher = more splicing; Tetrahymena group I intron in knt gene, E. coli kanamycin selection, DiMSum; sequences stand for … in CUCUCU…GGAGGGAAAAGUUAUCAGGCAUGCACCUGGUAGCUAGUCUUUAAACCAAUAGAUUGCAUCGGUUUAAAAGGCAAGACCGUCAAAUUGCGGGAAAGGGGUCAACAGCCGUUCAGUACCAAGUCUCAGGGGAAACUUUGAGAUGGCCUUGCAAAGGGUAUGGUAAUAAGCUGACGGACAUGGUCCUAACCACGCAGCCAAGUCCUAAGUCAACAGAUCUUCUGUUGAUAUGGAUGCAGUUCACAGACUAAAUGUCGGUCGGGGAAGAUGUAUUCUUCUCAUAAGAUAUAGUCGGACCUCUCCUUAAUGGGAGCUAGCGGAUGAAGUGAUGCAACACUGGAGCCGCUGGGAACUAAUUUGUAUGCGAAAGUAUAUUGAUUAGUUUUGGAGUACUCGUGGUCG
# reportedConditions: 37 °C
measuredEndpoint: self-splicing fitness (ln)
Give bare numbers.

| macromoleculeSequence | measuredEndpoint | readoutValue |
| --- | --- | --- |
| AUUAAGCAAUAUUACGUACC | self-splicing fitness (ln) | 0.0479 |
| AAACAGCAAUAUUACGUGGA | self-splicing fitness (ln) | -1.95 |
| ACCGAGCAAUAUUACGAAGC | self-splicing fitness (ln) | -2.76 |
| GCAGAGCAAUAUUACGACAC | self-splicing fitness (ln) | -0.344 |
| GGACAGCAAUAUUACGGGCG | self-splicing fitness (ln) | -0.0669 |

Hey, quick one: what's self-splicing fitness (ln) for each of these?
1. CCUGAGCAAUAUUACGCAAC
2. CCGUAGCAAUAUUACGGUUU
3. CUUGAGCAAUAUUACGACUC
4. GCGCAGCAAUAUUACGCCGC

Found:
[-1.78, -3.05, -1.67, -1.44]

Provide each entry's self-splicing fitness (ln) from the list below.
1. CACAAGCAAUAUUACGCUUG
2. GGUUAGCAAUAUUACGGUAA
3. GCAAAGCAAUAUUACGUGGU
4. CCCCAGCAAUAUUACGAACG
5. AUCGAGCAAUAUUACGUAAA
6. AGCAAGCAAUAUUACGGAGU
7. CUAGAGCAAUAUUACGGCGU

Found:
1. -1.77
2. -0.716
3. -2.59
4. -2.19
5. -1.53
6. -1.6
7. -0.833

The reported measurements were obtained from the supplement of paper PMC7877785.
